- Target Entity: T1, human TIGIT-Fc (human, UniProt Q495A1 22-141, limits assumed)
- T1 construct: not shown: Fc; not described
- T1 sequence (looked up): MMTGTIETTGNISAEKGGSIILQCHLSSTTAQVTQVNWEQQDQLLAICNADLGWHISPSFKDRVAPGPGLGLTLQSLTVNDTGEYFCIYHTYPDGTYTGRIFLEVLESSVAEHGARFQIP
- Assay Procedure: CD155 competition ELISA, single point; note: test concentration or dose not given here
Task for the reader: assign each of the following binders its reported OD (450 nm).
State just the number; it will be interpreted in OD.

Q: Fill blank: measured OD (450 nm) of the binder TIGIT-SC167 (Fc fusion, VHH-Fc) VHH: EVQLVESGGGLVQPGGSLRLSCAASGRTFSFMGWFRQAPGKEREWVASVLRGGYTWYADSVKGRFTISADNSKNTAYLQMNSLKPEDTAVYYCAREGSGYASDYWGQGTLVTVSS is ____.
A: 0.279

Q: Fill blank: measured OD (450 nm) of the binder TIGIT-SC165 (Fc fusion, VHH-Fc) VHH: EVQLVESGGGLVQPGGSLRLSCAASGNTFSGGFMGWFRQAPGKEREWVASVLRGGYTWYADSVKGRFTISADNSKNTAYLQMNSLKPEDTAVYYCTTEGSGWRNWGQGTLVTVSS is ____.
A: 0.324

Q: Fill blank: measured OD (450 nm) of the binder TIGIT-SC176 (Fc fusion, VHH-Fc) VHH: EVQLVESGGGLVQPGGSLRLSCAASGFTFSPSWMGWFRQAPGKEREWVASVLRGGYTWYADSVKGRFTISADNSKNTAYLQMNSLKPEDTAVYYCVHEDSVAAHFDFWGQGTLVTVSS is ____.
A: 0.57

Q: Fill blank: measured OD (450 nm) of the binder TIGIT-SC40 (Fc fusion, VHH-Fc) VHH: EVQLVESGGGLVQPGGSLRLSCAASGFSFDRWAMGWFRQAPGKERELVARISWNGGSTYYADSVKGRFTISADNSKNTAYLQMNSLKPEDTAVYYCARDDGWLQFMHWGQGTLVTVSS is ____.
A: 0.613

Q: Fill blank: measured OD (450 nm) of the binder TIGIT-SC33 (Fc fusion, VHH-Fc) VHH: EVQLVESGGGLVQPGGSLRLSCAASGFLFDSYAMGWFRQAPGKEREFVAAVSQSGLLTFYADSVKGRFTISADNSKNTAYLQMNSLKPEDTAVYYCASRTSSWWWFDPWGQGTLVTVSS is ____.
A: 0.764

Q: Fill blank: measured OD (450 nm) of the binder TIGIT-SC101 (Fc fusion, VHH-Fc) VHH: EVQLVESGGGLVQPGGSLRLSCAASGRTFSSYAMGWFRQAPGKEREFVAAIDWSDGSTYYADSVKGRFTISADNSKNTAYLQMNSLKPEDTAVYYCARWYSSSGDYYYMDVWGQGTLVTVSS is ____.
A: 0.394

Q: Fill blank: measured OD (450 nm) of the binder TIGIT-SC174 (Fc fusion, VHH-Fc) VHH: EVQLVESGGGLVQPGGSLRLSCAASGFLFDSYAMGWFRQAPGKEREFVAAISWSGGSTYYADSVKGRFTISADNSKNTAYLQMNSLKPEDTAVYYCTTDALRFLEWPWWGQGTLVTVSS is ____.
A: 0.532

Q: Fill blank: measured OD (450 nm) of the binder TIGIT-SC134 (Fc fusion, VHH-Fc) VHH: EVQLVESGGGLVQPGGSLRLSCAASGFTLENNMMGWFRQAPGKEREFVAAISASGTLRAYADSVKGRFTISADNSKNTAYLQMNSLKPEDTAVYYCARWYRVNNWSPGYYYYMDVWGQGTLVTVSS is ____.
A: 0.845
